Each entry below carries its recorded LogIC50.
# Study target: T1, human NK1 receptor (human, UniProt P25103 1-407)
# T1 construct: whole, on cells; Assayed as membrane preparations of transfected CHO cells; also called hNK1; human neurokinin-1 receptor
# T1 sequence (P25103 whole entry): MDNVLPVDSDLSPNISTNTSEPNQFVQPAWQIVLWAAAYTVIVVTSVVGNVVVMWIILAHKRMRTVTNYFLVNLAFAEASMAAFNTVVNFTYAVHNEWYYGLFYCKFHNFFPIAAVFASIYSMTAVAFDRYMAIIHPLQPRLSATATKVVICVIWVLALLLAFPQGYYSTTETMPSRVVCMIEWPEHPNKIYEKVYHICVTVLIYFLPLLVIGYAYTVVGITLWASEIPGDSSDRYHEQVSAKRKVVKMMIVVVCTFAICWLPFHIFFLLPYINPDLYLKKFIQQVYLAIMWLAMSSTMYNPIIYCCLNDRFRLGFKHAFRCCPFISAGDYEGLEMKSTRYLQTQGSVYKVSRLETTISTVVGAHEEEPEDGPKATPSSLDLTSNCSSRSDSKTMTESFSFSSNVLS
# Protocol details: competition vs [3H]substance P, membranes of hNK1-transfected CHO cells
Square brackets hold non-standard residues; d marks the D form. * marks the point of attachment. OBzl(3,5-(CF3)2) = FC(F)(F)c1cc(CO*)cc(C(F)(F)F)c1; NMe(benzyl) = CN(Cc1ccccc1)*; OBn = c1ccc(CO*)cc1

The examples below pair each entry with its known result.
H-Y[dA]GFPLW-{OBzl(3,5-(CF3)2)} (also: TFA salt, TFA salt; also called TY001) [H-Tyr-DAla-Gly-Phe-Pro-Leu-Trp-O-3,5-Bzl(CF3)2]	-11.3
H-Y[dA]GFPLW-OBn (also: TFA salt, TFA salt; also called TY011) [H-Tyr-DAla-Gly-Phe-Pro-Leu-Trp-O-Bzl]	-6.7
H-Y[dA]GFPLW-{NMe(benzyl)} (also: TFA salt, TFA salt; also called TY010) [H-Tyr-D-Ala-Gly-Phe-Pro-Leu-Trp-NMe-Bzl]	-8.5

// next entry
query: Which value of LogIC50 has been reported for H-Y[dA]GFPLW-{NMe‑Bn(CF3)2} (also: TFA salt, TFA salt; also called TY013) [H-Tyr-D-Ala-Gly-Phe-Pro-Leu-Trp-NMe-3,5-Bzl(CF3)2] in the records?
result: -8.5
